tested.on: T1, TP-51 peptide (aa 352-414 of SEQ ID NO:1) (human)
T1 construct: Synthetic peptide (Pepscan)
T1 peptide: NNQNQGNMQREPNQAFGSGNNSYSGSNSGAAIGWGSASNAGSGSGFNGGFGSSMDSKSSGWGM
experimental.details: SPR 8K, mAb captured, TP-51 injected; IgG1
measurement.name: kon

## Input Given hACI-7069-633B12-Ab1_H23L20 (IgG1) (antibody, V domains shown, Human IgG1 / kappa) VH: QVQLVQSGAEVKKPGASVKVSCKTSGFTFTEYSMHWVRQAPGQRLEWIGGINPGNGGTSYNQKFKGRVTITVDTSASTAYMELSSLRSEDTAVYYCARESWGQGTTVTVSS VL: DVVMTQSPLSLPVTLGQPASISCKSSQSLLHSDGKTYLNWLQQRPGQSPRRLIYLVSKLDSRVPDRFSGSGSGTDFTLKISRVEAEDLGVYYCWQGTHFPHTFGQGTKLEIK , state its recorded kon.
## Output 35000 M⁻¹ s⁻¹

## Input Again, but for hACI-7069-633B12-Ab1_H20L19 (IgG1) (antibody, V domains shown, Human IgG1 / kappa) VH: EVQLVQSGAEVKKPGASVKVSCKTSGFTFTEYSMHWVRQAPGQRLEWIGGINPGNAGTSYNQKFKGRVTITVDTSASTAYMELSSLRSEDTAVYYCARESWGQGTTVTVSS VL: DVVMTQSPLSLPVTLGQPASISCKSSQSLLHSDAKTYLNWLQQRPGQSPKRLIYLVSKLDSRVPDRFSGSGSGTDFTLKISRVEAEDLGVYYCFQGTHFPHTFGQGTKLEIK
## Output 170000 M⁻¹ s⁻¹

## Input Entry hACI-7069-633B12-Ab1_H19L18 (IgG1 isotype) (antibody, V domains shown, Human IgG1 / kappa; also called hACI-7069-633B12-Ab1_H19L18 (hIgG1 isotype)) VH: QVQLVQSGAEVKKPGASVKVSCKTSGFTFTEYSMHWVRQAPGQRLEWIGGINPGNAGTSYNQKFKGRVTITVDTSASTAYMELSSLRSEDTAVYYCARESWGQGTTVTVSS VL: DVVMTQSPLSLPVTLGQPASISCKSSQSLLHSDAKTYLNWLQQRPGQSPRRLIYLVSKLDSRVPDRFSGSGSGTDFTLKISRVEAEDLGVYYCFQGTHFPHTFGQGTKLEIK please
## Output 53000 M⁻¹ s⁻¹

## Input Try the binder hACI-7069-633B12-Ab1_H16L14 (IgG1) (antibody, V domains shown, Human IgG1 / kappa) VH: EVQLVQSGAEVKKPGASVKVSCKASGFTFTEYSMHWVRQAPGQRLEWMGGINPGNAGTSYNQKFKGRVTITVDTSASTAYMELSSLRSEDTAVYYCARESWGQGTTVTVSS VL: DVVMTQSPLSLPVTLGQPASISCKSSQSLLHSDAKTYLNWLQQRPGQSPRRLIYLVSKLDSGVPDRFSGSGSGTDFTLKISRVEAEDLGVYYCFQGTHFPHTFGQGTKLEIK
## Output 170000 M⁻¹ s⁻¹
